Cited source: patent US20250099534A1

study_system: T1, biotinylated-Lys63 linked Di-Ub (UniProt P0CG47 1-76, isopeptide bond between the C-terminal Gly of the distal Ub and Lys63 of the proximal Ub; biotin tag at the N-terminus of the distal Ub)
T1 construct: mature; Immobilised on streptavidin plates or on the SPR CAPture chip; also called K63-linked Di-Ub; biotin-Lys63 linked Di-Ub
experimental_details: fluorescence-based competitive assay: unlabeled peptide, 5.0 molar equiv., pre-bound to biotinylated Lys63-linked Di-Ub on a streptavidin plate, then competed with CP1-FITC (1 equiv.); signal change relative to 1 (CP1), Y=[1-(a/b)]x100
Starred links: 1 amine or outer side, 2 acyl side, 3 side chain; linkers in the order of their positions; H or OH if unused. Positions of bridges follow the written chain, without caps; N, C: chain ends. mBz = 3-(methylene)benzoyl on the N-terminal amine, O=C(c1cccc(C[*:3])c1)[*:2]

binder	binding result
mBz-LLIWIGSSKNCYILCG-NH2 (thioether N-15; SMILES CC[C@H](C)[C@@H]1NC(=O)[C@H](Cc2c[nH]c3ccccc23)NC(=O)[C@H]([C@@H](C)CC)NC(=O)[C@H](CC(C)C)NC(=O)[C@H](CC(C)C)NC(=O)c2cccc(c2)CSC[C@@H](C(=O)NCC(N)=O)NC(=O)[C@H](CC(C)C)NC(=O)[C@H]([C@@H](C)CC)NC(=O)[C@H](Cc2ccc(O)cc2)NC(=O)[C@H](CS)NC(=O)[C@H](CC(N)=O)NC(=O)[C@H](CCCCN)NC(=O)[C@H](CO)NC(=O)[C@H](CO)NC(=O)CNC1=O, also called CP1-P11C; cyclic peptide 11) [11]	binds
mBz-LLIWIGSSKCPYILCG-NH2 (thioether N-15; SMILES CC[C@H](C)[C@@H]1NC(=O)[C@H](Cc2c[nH]c3ccccc23)NC(=O)[C@H]([C@@H](C)CC)NC(=O)[C@H](CC(C)C)NC(=O)[C@H](CC(C)C)NC(=O)c2cccc(c2)CSC[C@@H](C(=O)NCC(N)=O)NC(=O)[C@H](CC(C)C)NC(=O)[C@H]([C@@H](C)CC)NC(=O)[C@H](Cc2ccc(O)cc2)NC(=O)[C@@H]2CCCN2C(=O)[C@H](CS)NC(=O)[C@H](CCCCN)NC(=O)[C@H](CO)NC(=O)[C@H](CO)NC(=O)CNC1=O, also called CP1-N10C; cyclic peptide 10) [10]	binds
